Overview of reported EC50 across a group of compounds:
Measured Target: β2 adrenergic receptor (Homo sapiens (Human))
Assay Protocol: cAMP Gs dynamic HTRF assay, β2 expressing CHO cells
Format: cell-based
Assay Context: B2-AR; CHO-K1 (HitHunter); read-out: Average pEC50 [Receptor subtype: B2-AR; Cell type: CHO-K1 (HitHunter)] (converted)

For orientation, consider the following solved cases.
INSERT INTO assay_data (structure_smiles, result) VALUES
  ('CC(C)(C)NC[C@H](O)c1cc(F)cnc1C1CCCC1', '10 to 100 nM'),
  ('CC(C)(C)NC[C@H](O)c1cccc(OC(C)(C)C)n1', '< 10 nM');

Consider now this further compound.
Query: Which EC50 is listed for O[C@@H](CNC1CCOCC1)c1cccc(C(F)(F)F)n1 ?
Result: > 1000 nM

###

Assay Protocol: Rat pharmacokinetic studies
Assay type: in vivo, male SD rats
Assay Context: male, SD, plasma, IV 1 mg/kg
Readout Name: AUC(0-t)
Param answer (str): number followed by unit.

Query: Which AUC(0-t) is listed for CC(C)(C)NC[C@H](O)c1cccc(C#N)n1 ?
Result: 461 ng·h/mL

###

Overview of reported EC50 across a group of molecules:
Measured Target: β2 adrenergic receptor (Homo sapiens (Human), UniProt P07550)
Sequence (P07550 whole entry, species assumed): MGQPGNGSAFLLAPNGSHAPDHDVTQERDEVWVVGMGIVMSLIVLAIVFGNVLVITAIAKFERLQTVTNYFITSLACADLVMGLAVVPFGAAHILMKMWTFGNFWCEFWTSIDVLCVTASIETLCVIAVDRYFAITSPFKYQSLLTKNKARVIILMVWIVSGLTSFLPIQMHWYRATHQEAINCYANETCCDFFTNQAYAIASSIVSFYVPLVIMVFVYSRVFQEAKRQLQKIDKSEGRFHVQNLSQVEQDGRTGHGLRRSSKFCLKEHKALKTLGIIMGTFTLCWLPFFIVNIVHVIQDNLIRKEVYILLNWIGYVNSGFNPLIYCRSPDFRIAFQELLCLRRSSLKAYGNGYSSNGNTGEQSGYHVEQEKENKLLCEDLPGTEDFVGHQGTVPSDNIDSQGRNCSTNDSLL
Assay Protocol: cAMP Gs dynamic HTRF assay, β2 expressing CHO cells
Assay type: cell-based
Assay Context: B2-AR; CHO-K1 (HitHunter); read-out: Average pEC50 [Receptor subtype: B2-AR; Cell type: CHO-K1 (HitHunter)] (converted)

INSERT INTO measurements (structure_smiles, measured_target, result) VALUES
  ('C=CCc1ncccc1[C@@H](O)CNC(C)(C)C', 'β2 adrenergic receptor (Homo sapiens (Human), UniProt P07550)', '10 to 100 nM');

Query: Param readout= EC50; system= β2 adrenergic receptor (Homo sapiens (Human), UniProt P07550); entry= CC(=O)Nc1cccc([C@@H](O)CNC(C)(C)C)n1 ; returns value.
Result: > 1000 nM

Query: Param readout= EC50; system= β2 adrenergic receptor (Homo sapiens (Human), UniProt P07550); entry= COc1ccc(CC(C)(C)NC[C@@H](O)c2cccc(C(F)(F)F)n2)cc1 ; returns value.
Result: 100 to 1000 nM

Query: Param readout= EC50; system= β2 adrenergic receptor (Homo sapiens (Human), UniProt P07550); entry= Cc1cnccc1[C@@H](O)CNC(C)(C)C ; returns value.
Result: > 1000 nM

Query: Param readout= EC50; system= β2 adrenergic receptor (Homo sapiens (Human), UniProt P07550); entry= Cc1ccc([C@H](O)CNC(C)(C)C)nc1 ; returns value.
Result: > 1000 nM

Query: Param readout= EC50; system= β2 adrenergic receptor (Homo sapiens (Human), UniProt P07550); entry= CC(C)(CO)NC[C@H](O)c1cccc(C#N)n1 ; returns value.
Result: 100 to 1000 nM

###

Assay Protocol: Rat CNS exposure measurement (plasma, CSF, brain)
Format: in vivo, male SD rats
Assay Context: male, SD, in vivo, SC 1 mg/kg, read-out: Concentration, Plasma
Readout Name: concentration at 1 h
Param answer (str): number followed by unit.

Query: Which concentration at 1 h is listed for Cc1ncccc1[C@@H](O)CNC(C)(C)C ?
Result: 149 ng/mL

Reference source for all entries: patent US10947196B2
